# Measurement notes: Microsomal stability, human liver microsomes
# Assay type: in vitro ADME
# Settings: human, microsomes, pH 7.4
Assignment: determine reported half-life at 1 μM for the given compounds.

Qu. Identify the reported half-life at 1 μM for the following entry. Cc1ccnc(CNc2cc(-c3ccccc3)nc3c(-c4ccc(F)cc4)cnn23)c1 [Compound 62]
Ans. > 145 min

Qu. Identify the reported half-life at 1 μM for the following entry. COc1ccc(CNc2cc(-c3ccccc3)nc3c(-c4ccc(F)cc4)cnn23)nc1 [Compound 54]
Ans. > 145 min

Qu. Identify the reported half-life at 1 μM for the following entry. Cc1cccc(-c2cc(NCc3ccccn3)n3ncc(-c4ccc(F)cc4)c3n2)c1 [Compound 30]
Ans. > 145 min

src = paper PMC9506485
